Field: inhibition in vivo at 10 µmol/kg. Provide a value for each of the compounds that follow.
# System: Spontaneous hypertensive rats
# method_notes: Maximum blood pressure lowering rate, oral (Table 4)
# Type: in vivo
# assay_setup: Rattus norvegicus, 0.01 mmol/kg oral, ester of formula (I), read-out: Maximum blood pressure lowering rate (%) of the compound of the invention
Give bare numbers, in %.

Here is how some compounds turned out for inhibition in vivo at 10 µmol/kg.
{"compound": "Cc1c(C)c2c(c(C)c1OC(=O)c1ccc(CCCCCl)cn1)CCC(C)(CCCC(C)CCCC(C)CCCC(C)C)O2 (racemic) [Example 7]", "measured_metric": "inhibition in vivo at 10 µmol/kg", "numeric_result": 50}
{"compound": "Cc1c(C)c2c(c(C)c1OC(=O)c1ccc(CCCCBr)cn1)CCC(C)(CCCC(C)CCCC(C)CCCC(C)C)O2 (racemic) [Example 6]", "measured_metric": "inhibition in vivo at 10 µmol/kg", "numeric_result": 48}
{"compound": "CCCCSc1ccc(C(=O)Oc2c(C)c(C)c3c(c2C)CCC(C)(CCCC(C)CCCC(C)CCCC(C)C)O3)nc1 (racemic) [Example 18, dl-α-tocopheryl 5-butylthiopicolinate]", "measured_metric": "inhibition in vivo at 10 µmol/kg", "numeric_result": 39}
{"compound": "Cc1c(C)c2c(c(C)c1OC(=O)c1ccc(OCCCCCl)cn1)CCC(C)(CCCC(C)CCCC(C)CCCC(C)C)O2 (racemic) [Example 16]", "measured_metric": "inhibition in vivo at 10 µmol/kg", "numeric_result": 40}
{"compound": "Cc1c(C)c2c(c(C)c1OC(=O)c1ccc(Oc3ccc(Cl)cc3)cn1)CCC(C)(CCCC(C)CCCC(C)CCCC(C)C)O2 (racemic) [Example 17]", "measured_metric": "inhibition in vivo at 10 µmol/kg", "numeric_result": 48}

Note: attention shifts to another entry.
Name the recorded inhibition in vivo at 10 µmol/kg of the item Cc1c(C)c2c(c(C)c1OC(=O)c1ccc(CCC(Cl)CCl)cn1)CCC(C)(CCCC(C)CCCC(C)CCCC(C)C)O2 (racemic) [Example 5] in your answer.
53

---

# method_notes: in vivo
# assay_setup: mouse, po
measured_metric: LD50 at 48 h (mg/kg)
One number for each entry, in mg/kg.

Could you please provide reported LD50 at 48 h for CCCCc1ccc(C(=O)O)nc1 [B, 5-butylpicolinic acid, reference compound] ? Thanks!
180

---

# method_notes: in vivo
# assay_setup: mouse, po, acute toxicity LD50, orally administered, oral, mice, two days after administration
measured_metric: LD50 at 48 h

Consider the compound CCCCc1ccc(C(=O)Oc2c(C)c(C)c3c(c2C)CCC(C)(CCCC(C)CCCC(C)CCCC(C)C)O3)nc1 (racemic) [Example 1, dl-α-tocopheryl 5-butylpicolinate] and give its recorded LD50 at 48 h.
> 4000 mg/kg

---

# method_notes: in vivo
# assay_setup: mouse, ip, acute toxicity LD50, intraperitoneally administered, calculated for 5-butylpicolinic acid, intraperitoneal, mice
measured_metric: LD50 at 48 h

For CCCCc1ccc(C(=O)Oc2c(C)c(C)c3c(c2C)CCC(C)(CCCC(C)CCCC(C)CCCC(C)C)O3)nc1 (racemic) [Example 1, dl-α-tocopheryl 5-butylpicolinate] , write its LD50 at 48 h.
> 1210 mg/kg

---

Provide the recorded LD50 for the entries that follow.
# method_notes: Acute toxicity LD50, intraperitoneal (Table 5)
# assay_setup: mouse, in vivo, ip; read-out: LD50 of the 5-substituted picolinic acid
One number for each entry, in mg/kg.

Solved entries (count: 3):
{"compound": "O=C(O)c1ccc(CCCCCl)cn1 [reference compound]", "unit_string": "mg/kg", "LD50": 44}
{"compound": "O=C(O)c1ccc(Cc2ccccc2)cn1 [reference compound]", "unit_string": "mg/kg", "LD50": 135}
{"compound": "O=C(O)c1ccc(SCCCCl)cn1 [3-Chloropropyl]", "unit_string": "mg/kg", "LD50": 179}

Below are 5 compounds. Give each one its LD50.
1. O=C(O)c1ccc(CCCCBr)cn1 [reference compound]
2. O=C(O)c1ccc(OCCCCCl)cn1 [reference compound]
3. O=C(O)c1ccc(CCC(Cl)CCl)cn1 (stereo not drawn) [reference compound]
4. CCCCOc1ccc(C(=O)O)nc1 [reference compound]
5. O=C(O)c1ccc(Oc2ccc(Cl)cc2)cn1 [reference compound]

46
172
41
134
123

Please list LD50 recorded for the compound CCCSc1ccc(C(=O)O)nc1 [n-Propyl, propylthiopicolinic acid]
167
